- Test system: EKVX NSCLC
- assayComment: NCI tumour cell line growth inhibition, 48 h
Each entry below carries its recorded TGI.

1. CN(C)c1ccc(/C=C2\Oc3cc(O)ccc3C2=O)cc1	> 100 µM

Q: What value of measured TGI is listed for `CCOC(=O)c1cn(-c2ccc(Cl)cc2)c(=O)n2c1nc1ccccc12` ?
Result: > 100 µM

Q: Give the measured TGI of Cc1nn(C(=O)c2ccccc2O)c2c1C(c1ccccc1)SC(N)=N2 (stereo unspecified) .
Result: > 10 µM

Q: Fill blank: measured TGI of the compound C=CCCCCCCCCCCCC1CCC(CC)N1 (stereo unspecified) is ____.
Result: 31.4 µM

Q: Name the reported TGI value associated with the compound `CCCCC#COP(=O)(OCC)OCC`
Result: > 100 µM

Q: What measured TGI goes with `O=C1C=C(c2c(O)ccc3ccccc23)c2ccccc2C1=O` ?
Result: 11.9 µM

Q: Which value of TGI has been reported for `CCOC(=O)c1c(N2CCOCC2)[nH]c(=O)c(C(c2ccc(OC)cc2)c2c(O)c(C(=O)OCC)c(N3CCOCC3)[nH]c2=O)c1O` in the records?
Result: > 100 µM

Q: Which TGI value is on record for `COc1ccc(-c2c(C3=NCCN3)nnn2-c2ccccc2)cc1` ?
Result: > 100 µM

###

- System: DMS 273 small cell lung
- assayComment: NCI tumour cell line growth inhibition, 48 h
observationType: TGI

Record excerpt, results attached:
1) CN1CCN(CCSC2Cc3cc(Cl)ccc3Sc3ccccc32)CC1 (stereo not drawn)	4.28 µM
2) COc1cc(-c2cc(=O)c3cc4c(cc3[nH]2)OCO4)cc(OC)c1OC	> 100 µM

Let's switch to this compound now.
Q: TGI lookup needed for `O=[As](O)(O)c1cc(N=Nc2ccc(-c3ccc(N=Nc4cc([As](=O)(O)O)c(O)cc4O)cc3)cc2)c(O)cc1O` , thanks.
Result: > 100 µM

###

Reported TGI values for the following compounds.
- Test system: A498 renal
- assayComment: NCI tumour cell line growth inhibition, 48 h

1. Oc1ccc(N=Nc2ccc(Cl)cc2)cc1	41 µM

Q: # value lookup — system A498 renal, readout TGI, item O=C1OS2(OCc3cccc4cccc2c34)c2ccccc21 (stereo not drawn)
Result: > 100 µM

Q: Lab note: need TGI for CSC1SCC2C(=O)N(C)C3(CC3C)C(=O)OCC(NC(=O)c3nc4ccccc4cc3O)C(=O)NC(C)C(=O)N(C)C1C(=O)N(C)C1(CC1C)C(=O)OCC(NC(=O)c1nc3ccccc3cc1O)C(=O)NC(C)C(=O)N2C (stereo not drawn) on A498 renal, anyone have it?
Result: < 0.0001 µM

Q: # query: TGI | item COc1ccc(NC2Oc3cc4c(cc3C(c3cc(OC)c(O)c(OC)c3)C2C)OCO4)cc1 (stereo not drawn) | system: A498 renal
Result: 31.7 µM

Q: Form field - read-out: TGI; system: A498 renal; submitted item: `COC(=O)c1c(-c2ccccc2)cc2c3cc(-c4ccccc4)c(C(=O)OC)n3c3ccccc3n12`
Result: > 100 µM

Q: Form: Entry = CSCCC(NC(=O)OC(C)(C)C)C(=O)NCCNc1ccc(NCCNC(=O)C(CCSC)NC(=O)OC(C)(C)C)c2c1C(=O)c1ccccc1C2=O (stereo not drawn) | System = A498 renal | TGI = ____
Result: 21.1 µM

Q: GET /values?readout=TGI&system=A498 renal&item= CCOP(=O)(OCC)C(Nc1ccc(F)cc1)c1cccc([N+](=O)[O-])c1 (stereo not drawn)
Result: > 100 µM

Q: Record lookup: for A498 renal, what TGI belongs to CN1CCN(CCSC2Cc3cc(Cl)ccc3Sc3ccccc32)CC1 (stereo not drawn) ?
Result: 24.7 µM

###

- Test system: COLO 205 colon
- assayComment: NCI tumour cell line growth inhibition, 48 h; in the data active = GI50 below about 0.43 µM; inactive = the rest
// one of T (active), F (inactive), no free text

1. CCCCCCC/C=C/[C@H]1O[C@]23C(=O)C[C@@]4(C[C@@H](OC5OC(CO)C(O)C(O)C5O)C[C@@H]4[C@H]2C=C1C)OC3=O (some centres not stated)	F
2. CC[N+](CCCCCCCCCC[N+](CC)(c1ccccn1)c1ccccn1)(c1ccccn1)c1ccccn1	F
3. COc1cc(OC)c(/C=C/c2ccc3ccccc3[n+]2C)c(OC)c1	T

Then this molecule:
Q: Call for entry `Nc1c(C(=O)c2ccccc2)sc2nc(-c3cccs3)ccc12` :
Result: T

###

- Tested on: HCT-15 colon
- assayComment: NCI tumour cell line growth inhibition, 48 h
observationType: TGI

Q: Look up TGI: `O=C(Nc1cccc(-c2cn3ccccc3n2)c1)c1ccncc1`
Result: > 100 µM

Q: Which TGI value is on record for `C[CH2][Sn]1([CH2]C)[O]C(=O)[O][Sn]([CH2]C)([CH2]C)[O]1` ?
Result: > 54.4 µM

Q: I have this compound here, `O=C(O)c1ccc(Nc2nc3cc(C(F)(F)F)ccc3nc2C(=O)O)cc1` , and I need its recorded TGI.
Result: > 100 µM

###

- System: TK-10 renal
- assayComment: NCI tumour cell line growth inhibition, 48 h
Parameter TGI: see the listing below.

Worked examples follow.
1) CSC1SCC2C(=O)N(C)C3(CC3C)C(=O)OCC(NC(=O)c3nc4ccccc4cc3O)C(=O)NC(C)C(=O)N(C)C1C(=O)N(C)C1(CC1C)C(=O)OCC(NC(=O)c1nc3ccccc3cc1O)C(=O)NC(C)C(=O)N2C (stereo not given)	0.000416 µM
2) CC(C)n1c(=O)n(-c2ccccc2)n(C(C)(C)C)c1=O	> 100 µM
3) CSC(=NC1=NC(C(F)(F)F)(C(F)(F)F)N=C(c2ccccc2)O1)SC	> 100 µM
4) O=c1ccn(C2OC(CO)C(O)C2O)c(=O)[nH]1 (stereo not given)	> 1000 µM
5) COC(=O)C1(C(=O)OC)N=C(C)OC1C(C)C (stereo not given)	> 100 µM
6) Nc1nc2c(ncn2C2C=CC(CO)O2)c(=O)[nH]1 (stereo not given)	> 100 µM
7) CCOC(=O)c1sc2c(c1OC(=O)c1ccccc1)c(=O)n(-c1ccccc1)c(=S)n2-c1ccccc1	> 100 µM
8) CCOc1ccccc1NC(=O)/C=C1\NC(=O)CS1	> 100 µM

Q: Fill in: TGI of O=C1OS2(OCc3cccc4cccc2c34)c2ccccc21 (stereo not given) is ___
Result: > 100 µM

Q: Would you kindly share the measured TGI for `Cc1cc2c(CC(=O)O)[nH]nc2c(C(=O)O)c1C` ?
Result: > 100 µM

###

// TGI lookup, one value per entry
- Tested on: PC-3 prostate
- assayComment: NCI tumour cell line growth inhibition, 48 h
*1 amine or outer side, *2 acyl side, *3 side chain or, on linkers, in order; H or OH if unused. Where a SMILES comes first, the peptide text is derived from it. Bridges are numbered along the chain shown (N, C = ends). [ ]: non-standard residue; d: D form. ξ: configuration not given here. X4 = CCC(C)C(N[*:1])C(O)CC(=O)O[C@H](C(=O)C(C)C(=O)[*:2])C(C)C; NMeY = CN[C@@H](Cc1ccc(O)cc1)C(=O)O; ξNMeL = CNC(CC(C)C)C(=O)O; ξT = CC(O)C(N)C(=O)O
Record the value in nM, omitting the unit from your answer.

Q: Field request: TGI | item: COC1/C=C/C(C)C(C(C)C(OC)C(C)CCC(=O)C(C)C(CCC(=O)O)OC)OC(=O)/C=C/C=C(\C)CC(OC)CC2=CC(=O)O[C@@H](C(C)C(OC)CC(OC)/C=C/C(C)C(OC)C1)[C@H]2O (some centres not stated)
Result: 2820

Q: Endpoint output: TGI of CCC(C)C1NC(=O)C(NC(=O)C(CC(C)C)N(C)C(=O)[C@@H]2CCCN2)C(C)OC(=O)[C@H](Cc2ccc(OC)cc2)N(C)C(=O)[C@@H]2CCCN2C(=O)[C@H](CC(C)C)NC(=O)C(C)C(=O)[C@H](C(C)C)OC(=O)CC1O (some centres not stated) (H-P[ξNMeL][ξT][X4]LP[NMeY](Me); ester 3-C) . Value?
Result: 11.5

###

- System: U251 CNS
- assayComment: NCI tumour cell line growth inhibition, 48 h
Where a SMILES comes first, the peptide text is derived from it. [ ]: non-standard residue; d: D form. The star is where a group is joined. Cbz = O=C(OCc1ccccc1)*; Boc = CC(C)(C)OC(=O)*; Aib = CC(C)(N)C(=O)O; OBn = c1ccc(CO*)cc1; OtBu = CC(C)(C)O*; βAla = NCCC(=O)O
Classification field: Met = TGI at or over 30 µM; Not met = TGI under 30 µM.

Previously resolved entries follow.
1. CC(C)(C)OC(=O)CC(NC(=O)OC(C)(C)C)C(=O)NC(CCCCNC(=O)OCc1ccccc1)C(=O)NC(C)(C)C(=O)NCCC(=O)OCc1ccccc1 (configuration not stated) (Boc-D(OtBu)K(Cbz)[Aib][βAla]-OBn; configuration not given here)	Met
2. COC(=O)[C@@H]1N2C(=S)N(c3ccccc3)C(=O)[C@H]2SC1(C)C	Met
3. CC(C)=CC(C(O)c1ccccc1)S(=O)(=O)c1nccn1C (configuration not stated)	Met
4. CCC(=O)c1cn(C)c(=O)c2ccccc12	Met
5. O=C1NC(N/N=C\c2ccccc2)=N/C1=C/c1ccc(Cl)cc1	Met
6. CSC(=NC1=NC(C(F)(F)F)(C(F)(F)F)N=C(c2ccccc2)O1)SC	Met
7. O=C1C=CC(=O)c2ncccc21	Not met
8. Cc1cc(/C=C2\SC(=Nc3ccccc3)N(C3CCCC3)C2=O)c(C)n1-c1ccc(Cl)cc1	Met

Q: Please tell me: is the compound `N#CCc1nc(C#N)c(N)o1` at or over 30 µM in terms of TGI?
Result: Met

Q: Test whether the compound `N#CC(C#N)=C(N)/C(C#N)=C\c1ccnc2ccccc12` records TGI of 30 µM or higher.
Result: Met

Q: Record CC1CC(c2ccccc2)=Nc2ccccc2S1(=O)=O (configuration not stated) ; criterion: TGI no lower than 30 µM. Met?
Result: Met

Q: Decide: TGI of `CC[N+](CCCCCCCCCC[N+](CC)(c1ccccn1)c1ccccn1)(c1ccccn1)c1ccccn1` >= 30 µM?
Result: Not met

Q: Does COc1ccc(NC2Oc3cc4c(cc3C(c3cc(OC)c(O)c(OC)c3)C2C)OCO4)cc1 (configuration not stated) have a reported TGI of at least 30 µM?
Result: Met

Q: Answer whether TGI of `Nc1c(C(=O)c2ccccc2)sc2nc(-c3cccs3)ccc12` is greater than or equal to 30 µM.
Result: Not met

Q: Decide: is the reported value of TGI for `Cc1cc(S(=O)(=O)Nc2nnc3cc(C(F)(F)F)cc(C)n23)c(S)cc1Cl` equal to or greater than 30 µM?
Result: Met

Q: Can COC(=O)C1(C(=O)OC)N=C(C)OC1C(C)C (configuration not stated) be said to have TGI at or above 30 µM?
Result: Met

Q: Hello, I need to know if COS(=O)c1cc(Cl)cc(Cl)c1O (configuration not stated) has measured TGI not below 30 µM. Thanks!
Result: Met

Q: Record `COc1cc2ccnc3c2c(c1O)N(C)C=C3` ; criterion: TGI no lower than 30 µM. Met?
Result: Met

Q: Hi team, for `C=CCc1cc2cccc(OC)c2oc1=O` , is the recorded TGI at or above 30 µM?
Result: Met

Q: Has CSc1ncc2c(n1)-c1ccccc1OC2N1CCCC1 (configuration not stated) a recorded TGI greater than or equal to 30 µM?
Result: Met
